Each entry below carries its reported MIC.
tested on: Mycobacterium tuberculosis INH TSC ETH-res.; test: microbe, parasite or virus in culture; format: cell-based; details: read-out: MIC, INH TSC ETH-res.
Measurement label: MIC (µg/mL)

Molecule	Measurement label	Measured result
CC(NC(=O)c1cc([N+](=O)[O-])cc([N+](=O)[O-])c1)c1ccccn1 (stereo not drawn) [Example 29]	MIC	0.8
Cc1cccc(CNC(=O)c2cc([N+](=O)[O-])cc([N+](=O)[O-])c2)n1 [Example 14]	MIC	0.8
O=C(NCC1CCC=CO1)c1cc([N+](=O)[O-])cc([N+](=O)[O-])c1 (stereo not drawn) [Example 22]	MIC	0.2
